# systemTested: T1, purified human activated C1s protein, two-chain form (Homo sapiens, UniProt P09871 16-688)
# T1 construct: Purified protein bought from EMD Millipore; Biotin-labeled in the clone screen; also called active C1s; native C1s protein
# T1 sequence: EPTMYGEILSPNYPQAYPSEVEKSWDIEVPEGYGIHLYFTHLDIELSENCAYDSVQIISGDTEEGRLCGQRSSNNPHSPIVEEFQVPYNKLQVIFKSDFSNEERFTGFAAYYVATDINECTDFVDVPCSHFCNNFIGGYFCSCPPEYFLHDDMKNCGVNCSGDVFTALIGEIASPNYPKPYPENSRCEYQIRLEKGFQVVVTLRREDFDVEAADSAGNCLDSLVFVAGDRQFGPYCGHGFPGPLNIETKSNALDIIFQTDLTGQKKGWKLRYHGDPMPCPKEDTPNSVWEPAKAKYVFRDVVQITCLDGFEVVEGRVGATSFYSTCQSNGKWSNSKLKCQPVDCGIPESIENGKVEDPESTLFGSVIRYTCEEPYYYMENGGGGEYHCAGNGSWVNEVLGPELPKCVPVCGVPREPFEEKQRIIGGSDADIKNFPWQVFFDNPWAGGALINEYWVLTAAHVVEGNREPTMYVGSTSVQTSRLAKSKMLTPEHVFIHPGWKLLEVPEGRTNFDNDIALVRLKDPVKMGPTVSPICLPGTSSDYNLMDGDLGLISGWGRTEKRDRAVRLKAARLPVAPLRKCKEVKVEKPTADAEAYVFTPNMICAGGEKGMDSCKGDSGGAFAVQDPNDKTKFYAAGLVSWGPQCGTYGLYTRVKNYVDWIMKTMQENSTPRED
# experimentNotes: bio-layer interferometry (BLI), kinetic analysis
experimentalEndpoint: Kd (nM)
Give the number; nM is assumed, so skip it.

So what does the record say about Kd for antibody IPN-M8 (antibody, V domains shown, Mouse monoclonal antibody (NZBW hybridoma); Same VL and VH as IPN-M2) VH: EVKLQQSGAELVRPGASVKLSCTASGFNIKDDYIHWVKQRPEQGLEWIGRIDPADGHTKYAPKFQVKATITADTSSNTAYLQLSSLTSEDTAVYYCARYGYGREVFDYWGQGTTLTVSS VL: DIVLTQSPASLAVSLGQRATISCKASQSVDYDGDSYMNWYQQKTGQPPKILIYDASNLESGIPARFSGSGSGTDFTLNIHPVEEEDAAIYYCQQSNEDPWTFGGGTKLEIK ? 0.213

So what does the record say about Kd for antibody IPN-M13 (antibody, V domains shown, Mouse monoclonal antibody (NZBW hybridoma); Same VL and VH as IPN-M1 and IPN-M3) VH: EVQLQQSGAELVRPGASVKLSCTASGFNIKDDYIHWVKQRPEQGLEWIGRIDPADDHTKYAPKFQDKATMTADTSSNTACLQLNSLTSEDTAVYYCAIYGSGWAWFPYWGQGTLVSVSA VL: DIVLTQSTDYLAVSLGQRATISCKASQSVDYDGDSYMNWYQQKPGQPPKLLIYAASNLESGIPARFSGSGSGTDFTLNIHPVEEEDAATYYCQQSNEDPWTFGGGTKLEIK ? 0.133

So what does the record say about Kd for antibody IPN-M9 (antibody, V domains shown, Mouse monoclonal antibody (NZBW hybridoma)) VH: QVQLQQPGAELVRPGASVKLSCKVSGYTFTRYWMHWVKQRPGQGLEWIGEINPSNSDTDYNEEFKSKATLTVDKSSSTAYMHLSSLTSEDSAVYYCTIDDSAYGWFAYWGQGTLVTVSA VL: DIVMTQSPAIMSASPGERVTMTCSASSSISYMHWYHQKPGTSPKRWIYDTSKLASGVPARFSGSGSGTSYSLTISSMEAEDAATYYCHQRSSFPTFGAGTKLELK ? 0.608
